System: ISC-enriched organoids
Assay: Primary screen, 384-well 2.5-D organoid differentiation (ENR+CD, 6 days): carbachol-induced lysozyme secretion (LYZ.S)
Type: cell-based, murine
Details: Dose 2.00 uM; ENR+CD, 6 days; FC vs plate median
This section presents compounds with their documented Dose.FC.LYZ.S values.
Lab book: enter the figure in log 2 fold change, no units written.

Examples with answers:
[[record]]
itemsmiles = "Cn1cc(C2=C(c3cn(C4CCN(Cc5ccccn5)CC4)c4ccccc34)C(=O)NC2=O)c2ccccc21"
unitabbrev = "log 2 fold change"
measuredvalue = 0.053

[[record]]
itemsmiles = "Cc1ccc([C@@H]2O[C@H](CO)[C@@H](O)[C@H](O)[C@H]2O)cc1Cc1ccc(-c2ccc(F)cc2)s1"
unitabbrev = "log 2 fold change"
measuredvalue = 0.028


Here's the next entry for you.
Which value of Dose.FC.LYZ.S has been reported for `c1ccc(CNc2nc(NCc3ccccc3)c3ccccc3n2)cc1` in the records?
−0.103

====

Tested on: ISC-enriched organoids
Experiment: Primary screen, 384-well 2.5-D organoid differentiation (ENR+CD, 6 days, Target Selective Inhibitor Library, vs whole-plate median): ATP (CellTiter-Glo 3D, CTG)
Conditions: Dose 2.00 uM; primary screen, FC vs plate median
Label condition met when Dose.FC.CTG is at or above 0.03 log 2 fold change; anything below gets condition not met.

[[record]]
compound = "O=[N+]([O-])C=Cc1ccc2c(c1)OCO2"
labelclass = "condition met"

[[record]]
compound = "COc1ccccc1S(=O)(=O)Nc1ccc2c(c1)CN(C)C(=O)N2"
labelclass = "condition met"

[[record]]
compound = "CN1C(=O)C(Cc2c[nH]c3ccccc23)NC1=S (centres unmarked)"
labelclass = "condition not met"

[[record]]
compound = "Cc1cc(SCc2sc(-c3ccc(C(F)(F)F)c(F)c3)nc2C)ccc1OCC(=O)O"
labelclass = "condition not met"


Identify whether the reported Dose.FC.CTG of the following compound is 0.03 log 2 fold change or greater: `COc1ccc(COc2ccc(Cc3cnc(N)nc3N)cc2OC)cc1`
condition not met

====

Tested on: ISC-enriched organoids
Test: Primary screen, 384-well 2.5-D organoid differentiation (ENR+CD, 6 days): basal lysozyme secretion (LYZ.NS)
Type: cell-based, murine
Conditions: Dose 2.00 uM; primary screen, FC vs plate median
measuredAttribute: Dose.FC.LYZ.NS (log 2 fold change)
The reply should be a number in log 2 fold change, with the unit left off.

Consider the worked cases shown below.
[[record]]
compound = "COc1ccc(CNCc2cccc3ccccc23)cc1.Cl [ML133 HCl]"
measuredattribute = "Dose.FC.LYZ.NS"
unitabbrev = "log 2 fold change"
measuredvalue = 0.073

[[record]]
compound = "C1=N/C2=N/c3ccc(OCCN4CCCC4)c(c3)COC/C=C/COCc3cccc(c3)C(=C1)N2 [Pacritinib (SB1518)]"
measuredattribute = "Dose.FC.LYZ.NS"
unitabbrev = "log 2 fold change"
measuredvalue = "−0.219"


Next compound, Dose.FC.LYZ.NS to be filled in.
// Dose.FC.LYZ.NS lookup, key: CCc1cc(Nc2nccc(-c3c(-c4ccc(OC)c(C(=O)Nc5c(F)cccc5F)c4)nc4ccccn34)n2)c(OC)cc1N1CCC(N2CCN(S(C)(=O)=O)CC2)CC1 [GSK1904529A]
−0.179

====

Tested on: ISC-enriched organoids
Assay: Primary screen, 384-well 2.5-D organoid differentiation (ENR+CD, 6 days): basal lysozyme secretion (LYZ.NS)
Type: cell-based, murine
Conditions: primary screen, dose 10.00 uM, ENR+CD 6 days, FC vs plate median
measuredAttribute: Dose.FC.LYZ.NS
Value and unit, in that order.

Answered cases to consult:
[[record]]
compound = "Cc1cc([C@@H](C)Nc2ccccc2C(=O)O)c2nc(N3CCOCC3)cc(=O)n2c1 [AZD6482]"
measuredattribute = "Dose.FC.LYZ.NS"
measuredvalue = "−0.248 log 2 fold change"

[[record]]
compound = "COc1cc(F)c(C(C)C)cc1-c1ccc(C(F)(F)F)cc1CN1C(=O)O[C@H](c2cc(C(F)(F)F)cc(C(F)(F)F)c2)[C@@H]1C [Anacetrapib (MK-0859)]"
measuredattribute = "Dose.FC.LYZ.NS"
measuredvalue = "−0.036 log 2 fold change"

[[record]]
compound = "C=C1C(=O)O[C@H]2[C@H]1CC/C(C)=C/CC[C@@]1(C)O[C@@H]21 [(−)-Parthenolide]"
measuredattribute = "Dose.FC.LYZ.NS"
measuredvalue = "0.133 log 2 fold change"

[[record]]
compound = "COc1cc2c(cc1O)CC[C@@H]1[C@@H]2CC[C@]2(C)[C@@H](O)CC[C@@H]12 [2-Methoxyestradiol (2-MeOE2)]"
measuredattribute = "Dose.FC.LYZ.NS"
measuredvalue = "−0.139 log 2 fold change"

[[record]]
compound = "O=C(O)c1ccc(N2C(=O)/C(=C\\c3ccc(-c4ccc([N+](=O)[O-])cc4)o3)C=C2c2ccccc2)cc1 [4E1RCat]"
measuredattribute = "Dose.FC.LYZ.NS"
measuredvalue = "0.007 log 2 fold change"

[[record]]
compound = "O=C1NC(=O)/C(=C/c2ccc(-c3ccc(F)cc3O)o2)S1 [AS-252424]"
measuredattribute = "Dose.FC.LYZ.NS"
measuredvalue = "−0.077 log 2 fold change"

[[record]]
compound = "CC(C)c1c(C(=O)Nc2ccccc2)c(-c2ccccc2)c(-c2ccc(F)cc2)n1CC[C@@H](O)C[C@@H](O)CC(=O)[O-].CC(C)c1c(C(=O)Nc2ccccc2)c(-c2ccccc2)c(-c2ccc(F)cc2)n1CC[C@@H](O)C[C@@H](O)CC(=O)[O-].[Ca+2] [Atorvastatin Calcium]"
measuredattribute = "Dose.FC.LYZ.NS"
measuredvalue = "−0.235 log 2 fold change"

[[record]]
compound = "CC(C)CCN1c2nc(Nc3cc(F)c(O)c(F)c3)ncc2N(C)C(=O)C1C (centres unmarked) [BI-D1870]"
measuredattribute = "Dose.FC.LYZ.NS"
measuredvalue = "−0.285 log 2 fold change"

[[record]]
compound = "CN(C)C(=O)c1ccc(S(=O)(=O)c2ccc(NC(=O)[C@@](C)(O)C(F)(F)F)c(Cl)c2)cc1 [AZD7545]"
measuredattribute = "Dose.FC.LYZ.NS"
measuredvalue = "−0.051 log 2 fold change"

[[record]]
compound = "CC1(C)CCC(c2ccc(Cl)cc2)=C(CN2CCN(c3ccc(C(=O)NS(=O)(=O)c4ccc(N[C@H](CCN5CCOCC5)CSc5ccccc5)c(S(=O)(=O)C(F)(F)F)c4)cc3)CC2)C1 [ABT-263 (Navitoclax)]"
measuredattribute = "Dose.FC.LYZ.NS"
measuredvalue = "−0.259 log 2 fold change"


# context switch: different compound, same Dose.FC.LYZ.NS
Short answer please: Dose.FC.LYZ.NS, ISC-enriched organoids, entry C/C(=C\C(=O)Nc1ccccc1C(=O)O)c1ccc2ccccc2c1 [BIBR 1532]
−0.062 log 2 fold change
